Where do the numbers come from? From patent US5324821A.

quantity of drug incorporated into LDLs (uptake) values by entry
tested on: LDLs; assay: Quantities of drug incorporated into LDLs; assay type: physicochemical; conditions: ametantrone and mitoxantrone and esters; per particle of LDL; ametantrone esters by optical density at 614 nm; incubation 18 hours at 37° C.
endpoint.name: quantity of drug incorporated into LDLs (uptake)

- compound: "CCCCCCCC/C=C\\CCCCCCCC(=O)OCCNCCNc1ccc(NCCNCCOC(=O)CCCCCCC/C=C\\CCCCCCCC)c2c1C(=O)c1ccccc1C2=O [Ametantrone dioleate]"
  measured: "2 molecules/particle"
- compound: "CCCCCCCCCCCCCCCC(=O)OCCNCCNc1ccc(NCCNCCO)c2c1C(=O)c1ccccc1C2=O [Ametantrone monopalmitate]"
  measured: "2 molecules/particle"
- compound: "CCCCCCCC/C=C\\CCCCCCCC(=O)OCCNCCNc1ccc(NCCNCCO)c2c1C(=O)c1ccccc1C2=O [Ametantrone monooleate]"
  measured: "2 molecules/particle"
- compound: "CCCCCCCCCCCCCCCCCC(=O)OCCNCCNc1ccc(NCCNCCO)c2c1C(=O)c1ccccc1C2=O [Ametantrone monostearate]"
  measured: "1 molecules/particle"
- compound: "O=C1c2ccccc2C(=O)c2c(NCCNCCO)ccc(NCCNCCO)c21 [Ametantrone, reference compound]"
  measured: "1 molecules/particle"
- compound: "CCCCCCCCCCCCCCCCCC(=O)OCCNCCNc1ccc(NCCNCCOC(=O)CCCCCCCCCCCCCCCCC)c2c1C(=O)c1ccccc1C2=O [Ametantrone distearate]"
  measured: "1 molecules/particle"
- compound: "CC/C=C\\C/C=C\\C/C=C\\CCCCCCCC(=O)OCCNCCNc1ccc(NCCNCCOC(=O)CCCCCCC/C=C\\C/C=C\\C/C=C\\CC)c2c1C(=O)c1ccccc1C2=O [Ametantrone dilinolenate]"
  measured: "90 molecules/particle"
- compound: "CC/C=C\\C/C=C\\C/C=C\\CCCCCCCC(=O)OCCNCCNc1ccc(NCCNCCO)c2c1C(=O)c1ccccc1C2=O [Ametantrone monolinolenate]"
  measured: "80 molecules/particle"

---

system: LDLs; test: Quantities of drug incorporated into LDLs; format: physicochemical; details: ametantrone and mitoxantrone and esters; per particle of LDL; ametantrone esters by optical density at 614 nm; incubation 18 hours at 37° C.
endpoint.name: quantity of drug incorporated into LDLs (uptake) (molecules/particle)

- compound: "CCCCCCCCCCCCCCCC(=O)OCCNCCNc1ccc(NCCNCCOC(=O)CCCCCCCCCCCCCCC)c2c1C(=O)c1ccccc1C2=O [Ametantrone dipalmitate]"
  measured: 2
- compound: "CC/C=C\\C/C=C\\C/C=C\\CCCCCCCC(=O)OCCNCCNc1ccc(NCCNCCOC(=O)CCCCCCC/C=C\\C/C=C\\C/C=C\\CC)c2c1C(=O)c1c(O)ccc(O)c1C2=O [Mitoxantrone dilinolenate]"
  measured: 22
- compound: "O=C1c2c(O)ccc(O)c2C(=O)c2c(NCCNCCO)ccc(NCCNCCO)c21 [Mitoxantrone, reference compound]"
  measured: 1
